Measured IFNg Secretion (Fold over CD3) accompanies every entry in the list below.
# TARGET UNDER TEST: T1, human GITR (Glucocorticoid-induced TNFR-related gene, TNFRSF18) (human, UniProt Q9Y5U5 26-241)
# T1 sequence: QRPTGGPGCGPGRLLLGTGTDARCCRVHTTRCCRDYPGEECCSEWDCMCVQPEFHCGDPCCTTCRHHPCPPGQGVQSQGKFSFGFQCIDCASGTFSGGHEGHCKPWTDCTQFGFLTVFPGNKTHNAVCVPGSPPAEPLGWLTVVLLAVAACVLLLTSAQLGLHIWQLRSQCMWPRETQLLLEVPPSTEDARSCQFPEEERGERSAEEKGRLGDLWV
# EXPERIMENT DESCRIPTION: cell-based or functional assay
Could you give me the number in fold over CD3? Just the number is fine.

Field: example entries. Status: answers known.
BINDER	RESULT VALUE
33C9 (antibody, human IgG1, kappa, V domains shown, Fully human parental antibody; also called Ab2; SS-12413) VH: QVQVVESGGGVVQPGRSLRLSCAASGFTFSSYGMHWVRQAPGKGLEWVSVIWYEGSNKYYADSVKGRFTISRDNSKNTLYLQMNSLRAEDTAVYYCARGGLLGYYYYYGMDVWGQGTTVTVSS VL: DIQMTQSPSSLSASVGDRVTITCRASQGIRNDLGWYQQKPGKAPKRLIYDASSLQSGVPSRFSGSGSGTEFTLTISSLQPEDFATYYCLQHHSYPWTFGQGTKVEIKR	2.7
33F6 (antibody, human IgG1, kappa, V domains shown, Fully human parental antibody; also called Ab3; SS-12414) VH: QVQLVESGGGVVQPGRSLRLSCAASGFTFSNYGMHWVRQAPGKGLEWVAVIWYVGSNKYYADSVKGRFTISRDNSKNTLYLQMNSLRAEDTAVYYCARGGELRLYYYYGMDVWGQGTTVTVSS VL: DIQMTQSPSSLSASVGDRVTITCRASQGIRNDLGWYQQKPGKAPKRLIYAASSLQSGVPSRFSGSGSGTEFTLTVSSLQPEDFATYYCLQLNSYPWTFGQGTKVEIKR	2.8
35B10 (antibody, human IgG1, kappa, V domains shown, Fully human parental antibody; also called Ab5; SS-12416) VH: QVQLVESGGGVVQPGRSLRLSCAASGFTFSSYGMHWVRQAPGKGLEWVAVIWYAGSNKYYADSVKGRFTISRDNSKNTLYLQMNSLRAEDTAVYYCARGGELSFYYYYGMDVWGQGTTVTVSS VL: DIQMTQSPSSLSASVGDRVTITCRASQGIRNDLGWYQQKPGKAPKRLIYAASTLQSGVPSRFSGSGSGTEFTLTISSLQPEDFATYYCLQHNNYPWTFGQGTKVEIKR	1.9
48H12 (antibody, human IgG1, kappa, V domains shown, Fully human parental antibody; also called Ab12; SS-12422) VH: QVQLVESGGGVVQPGRSLRLSCAASGFTFSSYGMHWVRQAPGKGLEWVAVIWYAGSNKYYADSVKGRFTISRDNSKNTVYLQMNSLRAEDTAVYYCARGGQLALYYYYGMDVWGQGTTVTVSS VL: DIQMTQSPSSLSASVGDRVTITCRASQGIRNDLGWYQQKPGKAPKRLIYAASSLQSGVPSRFSGSGSGTEFTLTISSLQPEDFATYYCLQHNNYPWTFGQGTKVEIKR	1.2

Now let's try a different one.
# get_value(readout='IFNg Secretion (Fold over CD3)', item= 44C1v1 (antibody, human IgG1, lambda, V domains shown, tied to 44C1v1 by Ab20 / SS-12514; also called Ab20; SS-12514) VH: QVQLVESGGGVVQPGRSLRLSCAASGFTLSSYGMHWVRQAPGKGLEWVAVIWYDGSNKYYADSVKGRFTISRDNSKNTLYLQMNSLRAEDTAVYYCARRGTVTTPDFDYWGQGTLVTVSS VL: QSALTQPASVSGSPGQSITISCTGTSSDVGTYNLVSWYQQHPGKAPKLMIYEVSKRPSGVSNRFSGSKSGNTASLTISGLQAEDEADYYCASYAGFSTWVFGGGTKLTVLG )
1.6

Where do the numbers come from? From patent US20150064204A1.
